FYI, the data here is from patent US10898481B2.

Target: mA2a/CHO (Mus musculus (Mouse), UniProt Q60613)
Sequence (Q60613 whole entry): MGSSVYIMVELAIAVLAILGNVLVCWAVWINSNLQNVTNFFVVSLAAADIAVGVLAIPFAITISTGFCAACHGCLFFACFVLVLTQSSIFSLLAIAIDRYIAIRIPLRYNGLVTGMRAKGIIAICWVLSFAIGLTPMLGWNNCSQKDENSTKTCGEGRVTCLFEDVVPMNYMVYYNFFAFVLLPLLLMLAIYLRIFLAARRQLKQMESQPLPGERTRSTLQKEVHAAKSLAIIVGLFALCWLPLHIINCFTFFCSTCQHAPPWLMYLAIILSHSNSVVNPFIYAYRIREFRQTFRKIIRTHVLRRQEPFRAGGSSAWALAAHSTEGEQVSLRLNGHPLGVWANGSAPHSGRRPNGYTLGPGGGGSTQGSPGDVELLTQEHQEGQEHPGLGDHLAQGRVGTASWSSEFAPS
Assay: cAMP inhibition assay in mA2a/CHO cells, 10 μM adenosine
Format: cell-based
Settings: read-out: cAMP & FLIPR IC50 (nM) mA2a
Assign IC50 to each entry below.
Could you give me the number in nM? Just the number is fine.

Look up IC50: "Cn1cnc2ccc(-c3nc(C(=O)NCc4ncccc4OCC(N)=O)c(N)nc3-c3ccc(F)cc3)cc21" 4.7

Look up IC50: "Cc1cc(-c2nc(C(=O)NCc3c(F)cccc3F)c(N)nc2-c2ncco2)ccn1" 41

Look up IC50: "COC[C@H]1CCCN1C(=O)c1nc(-c2ccc3ncc(C)n3c2)c(-c2ccc(F)cc2)nc1N" 249

Look up IC50: COC(C)CNC(=O)c1nc(-c2ccc3ncc(C)n3c2)c(-c2ncco2)nc1N (single isomer, unassigned; isomer 1) [Example 248] 18

Look up IC50: "Cc1cc(-c2nc(C(=O)NCc3c(F)cccc3F)c(N)nc2-c2ncco2)cc(C)n1" 219

Look up IC50: Cc1cnc2ccc(-c3nc(C(=O)NCC4(C)CCCN4C)c(N)nc3-c3ncco3)cn12 (single isomer, unassigned; isomer 2) 345

Look up IC50: "Cc1cnc2ccc(-c3nc(C(=O)NC[C@H]4CCCN4C)c(N)nc3-c3ccc(F)cc3)cn12" 70

---

Molecular target: hA2a/CHO (Homo sapiens (Human), UniProt P29274)
Sequence (P29274 whole entry): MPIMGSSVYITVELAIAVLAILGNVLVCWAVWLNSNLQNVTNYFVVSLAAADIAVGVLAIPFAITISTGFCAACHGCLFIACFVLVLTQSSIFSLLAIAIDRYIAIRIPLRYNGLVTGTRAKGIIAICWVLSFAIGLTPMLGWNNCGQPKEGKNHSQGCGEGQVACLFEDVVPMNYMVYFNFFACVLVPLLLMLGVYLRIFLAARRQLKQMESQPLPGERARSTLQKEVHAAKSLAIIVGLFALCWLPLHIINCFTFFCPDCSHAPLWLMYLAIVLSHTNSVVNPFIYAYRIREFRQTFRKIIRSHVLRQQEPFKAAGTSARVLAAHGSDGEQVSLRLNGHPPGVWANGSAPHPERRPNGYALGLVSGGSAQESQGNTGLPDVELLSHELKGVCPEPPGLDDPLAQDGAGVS
Assay: cAMP inhibition assay in hA2a/CHO cells, 10 μM adenosine
Format: cell-based
Settings: read-out: cAMP & FLIPR IC50 (nM) hA2a
recorded.endpoint: IC50
# include the unit after the value

Look up IC50: "Cc1cnc2ccc(-c3nc(C(=O)NCc4cccc(N5CC6(CCN6C)C5)n4)c(N)nc3-c3ncco3)cn12" 1 nM

Look up IC50: Cc1cnc2ccc(-c3nc(C(=O)NCCN(C)C4CCOC4)c(N)nc3-c3ncco3)cn12 (racemic) 38 nM

Look up IC50: Cc1cnc2ccc(-c3nc(C(=O)NCC4(C)CCOC4)c(N)nc3-c3ncco3)cn12 (single isomer, unassigned; isomer 2) [Example 252] 2.9 nM

Look up IC50: Cc1cnc2ccc(-c3nc(C(=O)NCC4CC(=O)N(C)C4)c(N)nc3-c3ncco3)cn12 (single isomer, unassigned; isomer 1) [Example 213] 22 nM

Look up IC50: "Nc1cccc(CNC(=O)c2nc(-c3ccc4nccn4c3)c(-c3ncco3)nc2N)n1" 19 nM

Look up IC50: "Cc1cnc2ccc(-c3nc(C(=O)NCc4cccc(N5C[C@H]6C[C@@H]5CN6C)n4)c(N)nc3-c3ncco3)cn12" 4.5 nM

Look up IC50: "Cn1cc(-c2nc(C(=O)NCc3c(F)cccc3F)c(N)nc2-c2ccc(F)cc2)ccc1=O" 6.8 nM

---

Target: mA2a/CHO (Mus musculus (Mouse), UniProt Q60613)
Experiment: cAMP inhibition assay in mA2a/CHO cells, 10 μM adenosine;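 also: compounds preincubated 30 min at 37 °C before the adenosine challenge, then 30 min further stimulation, readout after 60 min detection reagent incubation at room temperature in 384-well plates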
Type: cell-based
Conditions: read-out: cAMP & FLIPR IC50 (nM) mA2a
Flag rule - IC50 less than 100 nM flags TRUE; the remaining entries get FALSE.

In the record for "Cc1cc(-c2nc(C(=O)NCc3ccccc3C(F)(F)F)c(N)nc2-c2ccc(F)cc2)cc(C)n1" , is IC50 less than 100 nM? FALSE

In the record for "Cc1cc(-c2nc(C(=O)NCc3ccccc3F)c(N)nc2-c2ccc(F)cc2)cc(C)n1" , is IC50 less than 100 nM? FALSE

In the record for "Cc1cnc2ccc(-c3nc(C(=O)NC[C@H]4CCCO4)c(N)nc3-c3ncco3)cn12" , is IC50 less than 100 nM? TRUE

In the record for "Cn1cc(-c2nc(C(=O)NCc3c(F)cccc3F)c(N)nc2-n2nccn2)ccc1=O" , is IC50 less than 100 nM? TRUE

In the record for "COc1ccccc1CNC(=O)c1nc(-c2cc(C)nc(C)c2)c(-c2ccccc2)nc1N" , is IC50 less than 100 nM? FALSE

In the record for "Nc1nc(-c2ccc(F)cc2)c(-c2ccc(=O)n(C3CC3)c2)nc1C(=O)NCc1c(F)cccc1F" , is IC50 less than 100 nM? TRUE

In the record for "Cn1cc(-c2nc(C(=O)NCc3ncccc3F)c(N)nc2-c2ncco2)ccc1=O" , is IC50 less than 100 nM? FALSE

In the record for "Cc1cnc2ccc(-c3nc(CNC(=O)[C@H]4CCCN4C)c(N)nc3-c3ccc(F)cc3)cn12" , is IC50 less than 100 nM? TRUE

---

Biological target: hA2b/CHO (Homo sapiens (Human))
Sequence (P29275 whole entry): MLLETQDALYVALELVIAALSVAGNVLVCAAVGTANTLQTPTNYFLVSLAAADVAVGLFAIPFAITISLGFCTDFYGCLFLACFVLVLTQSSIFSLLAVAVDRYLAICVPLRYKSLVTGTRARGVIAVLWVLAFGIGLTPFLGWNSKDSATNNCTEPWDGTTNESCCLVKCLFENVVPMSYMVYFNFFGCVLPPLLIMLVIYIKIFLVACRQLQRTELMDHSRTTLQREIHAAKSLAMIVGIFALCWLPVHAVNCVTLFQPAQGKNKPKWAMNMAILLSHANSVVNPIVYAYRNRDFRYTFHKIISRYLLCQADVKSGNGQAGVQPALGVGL
Experiment: cAMP inhibition assay in hA2b/CHO cells, 10 μM adenosine;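 also: cells exposed to compound 30 min at 37 °C, then stimulated with adenosine a further 30 min, cAMP read after 60 min at room temperature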
Type: cell-based
Conditions: read-out: cAMP & FLIPR IC50 (nM) hA2b
Flag rule - IC50 less than 600 nM flags Satisfied; the remaining entries get Not satisfied.

In the record for "COCCCNC(=O)c1nc(-c2ccc3ncc(C)n3c2)c(-c2ncco2)nc1N" , is IC50 less than 600 nM? Satisfied

In the record for CC1CN(c2nc(C(=O)NCc3c(F)cccc3F)c(N)nc2-c2ccc(F)cc2)CC(C)O1 (centres unmarked) , is IC50 less than 600 nM? Not satisfied

In the record for Cc1cnc2ccc(-c3nc(C(=O)NCC4CCCN4C)c(N)nc3-c3ncco3)cn12 (single isomer, unassigned) [Example 120] , is IC50 less than 600 nM? Not satisfied

In the record for "Cn1cnc2ccc(-c3nc(C(=O)NCc4ncccc4F)c(N)nc3-c3ncco3)cc21" , is IC50 less than 600 nM? Satisfied

In the record for CC(O)Cn1cc(-c2nc(C(=O)NCc3c(F)cccc3F)c(N)nc2-c2ncco2)ccc1=O (single isomer, unassigned) [Example 108] , is IC50 less than 600 nM? Satisfied

In the record for "Nc1nc(-c2ncco2)c(-c2ccc(=O)n(C3CC3)c2)nc1C(=O)NCc1c(F)cccc1F" , is IC50 less than 600 nM? Satisfied

In the record for "Cn1cc(-c2nc(CNC(=O)c3ncccc3OC(F)F)c(N)nc2-c2ccc(F)cc2)ccc1=O" , is IC50 less than 600 nM? Not satisfied

---

Target: hA2a/CHO (Homo sapiens (Human))
Assay: cAMP inhibition assay in hA2a/CHO cells, 10 μM adenosine
Format: cell-based
Settings: read-out: cAMP & FLIPR IC50 (nM) hA2a
Assign log10 of IC50 to each entry below.
The figures below represent log10 of IC50, where IC50 is stated in nM.

Look up log10 of IC50: "Cc1nc(CNC(=O)c2nc(-c3ccc4nccn4c3)c(-c3ncco3)nc2N)cs1" 2.12

Look up log10 of IC50: "Cn1cc(-c2nc(C(=O)NCc3ncccc3C(F)(F)F)c(N)nc2-c2ncco2)ccc1=O" 1.95

Look up log10 of IC50: "Cc1cnc2ccc(-c3nc(C(=O)NCc4cccc(N5CC(CN(C)C)C5)n4)c(N)nc3-c3ncco3)cn12" -0.40

Look up log10 of IC50: "COC[C@H]1CCCN1C(=O)c1nc(-c2ccc3ncc(C)n3c2)c(-c2ccc(F)cc2)nc1N" 1.69

Look up log10 of IC50: "Cc1cnc2ccc(-c3nc(C(=O)NC[C@H]4CCCN4C)c(N)nc3-c3ccc(F)c(F)c3)cn12" 1.57

Look up log10 of IC50: "Cc1cc(-c2nc(C(=O)NCc3ccccc3OC(F)(F)F)c(N)nc2-c2ccc(F)cc2)cc(C)n1" 1.28

Look up log10 of IC50: "Nc1nc(-c2ncco2)c(-c2ccc3nccn3c2)nc1C(=O)NCc1c(F)cccc1F" -0.70

Look up log10 of IC50: "CNc1ccc(F)c(CNC(=O)c2nc(-c3ccc(=O)n(C)c3)c(-c3ncco3)nc2N)n1" 1.52

---

Target: hA2a/CHO (Homo sapiens (Human), UniProt P29274)
Assay: cAMP inhibition assay in hA2a/CHO cells, 10 μM adenosine;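 also: compounds added to cells 30 min ahead of adenosine, then a further 30 min at 37 °C with adenosine before cAMP detection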
Assay type: cell-based
Settings: read-out: cAMP & FLIPR IC50 (nM) hA2a
recorded.endpoint: log10(IC50) (log10 of the value in nM)
The figures below represent log10 of IC50, where IC50 is stated in nM.

Look up log10(IC50): Cn1cnc2ccc(-c3nc(C(=O)NCc4ncccc4OCCO)c(N)nc3-c3ccc(F)cc3)cc21 [Example 113] -0.40

Look up log10(IC50): CCc1ccccc1CNC(=O)c1nc(-c2cc(C)nc(C)c2)c(-c2ccc(F)cc2)nc1N [Example 84] 1.26

Look up log10(IC50): COc1cc(F)ccc1CNC(=O)c1nc(-c2cc(C)nc(C)c2)c(-c2ccc(F)cc2)nc1N [Example 52] 1.95

Look up log10(IC50): Cc1cnc2ccc(-c3nc(C(=O)NCC4(C)CCOC4)c(N)nc3-c3ncco3)cn12 (single isomer, unassigned; isomer 1) [Example 251] 0.67

Look up log10(IC50): Cc1cnc2ccc(-c3nc(C(=O)N[C@H](C)Cn4nccn4)c(N)nc3-c3ncco3)cn12 [Example 298] 1.67

Look up log10(IC50): Nc1nc(-c2ccc(F)cc2)c(-c2ccc(=O)n(C3CC3)c2)nc1C(=O)NCc1c(F)cccc1F [Example 87] 1.00

Look up log10(IC50): Cc1cnc2ccc(-c3nc(C(=O)NC[C@H]4CCCN4)c(N)nc3-c3ncco3)cn12 [Example 122] 1.53
